B1: library; a variant is named by its letters at N, in order (parent)
chain: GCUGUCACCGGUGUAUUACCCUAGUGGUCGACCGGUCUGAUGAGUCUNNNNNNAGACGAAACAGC

Variants of: B1
Assay: normalized RNA/DNA level without ligand (relative to sTRSVctl = 100) (log10 (% of sTRSVctl)); ligand: hypoxanthine (xanthine aptamer); higher = less ribozyme self-cleavage, higher mRNA level
Settings: HEK293T, reporter: mCherry (pCS4076), ligand present: no
Experimental Endpoint: normalized RNA/DNA level without ligand (log10)
API doc: respond with a numeric literal and nothing else, no unit.

# Variant String, Measured Number
rows = [
    ("CAUCGU", 1.94),
    ("GUAGAG", 1.31),
    ("UAUUUU", 1.86),
]

normalized RNA/DNA level without ligand (log10) measured on UUAAUG = 1.74

normalized RNA/DNA level without ligand (log10) measured on CCGCAG = 1.39

normalized RNA/DNA level without ligand (log10) measured on UGAGGU = 1.67

normalized RNA/DNA level without ligand (log10) measured on GUGCUC = 1.85

normalized RNA/DNA level without ligand (log10) measured on AGAGUA = 1.7

normalized RNA/DNA level without ligand (log10) measured on ACUUCU = 1.89

normalized RNA/DNA level without ligand (log10) measured on GUUCAU = 1.78

normalized RNA/DNA level without ligand (log10) measured on CUAUCU = 1.89

normalized RNA/DNA level without ligand (log10) measured on UAAGUA = 1.88

normalized RNA/DNA level without ligand (log10) measured on AGCCUG = 1.57

normalized RNA/DNA level without ligand (log10) measured on AUCUCU = 1.94

normalized RNA/DNA level without ligand (log10) measured on UCCACA = 1.84

normalized RNA/DNA level without ligand (log10) measured on CUACCG = 1.8

normalized RNA/DNA level without ligand (log10) measured on AUGGCU = 1.86

normalized RNA/DNA level without ligand (log10) measured on GAGGCU = 1.98
